Test system: NCI-H292 lung cancer cells
assay_protocol: FDA drug screening, complete media vs cholesterol-free media without statin (TABLE 1)
Type: cell-based, human
condition_summary: Complete minus Cholesterol-free; […]
Structures can show the parent of a compound that is named as a salt.
Give measured Difference for each item. Keep answers brief.

Each compound below has a reported value. Please supply its Difference.
1. C[C@H]1C[C@H]2[C@@H]3CCC4=CC(=O)C=C[C@]4(C)[C@@]3(Cl)[C@@H](O)C[C@]2(C)[C@@]1(O)C(=O)CO
2. OC[C@H]1NC[C@H](O)[C@@H](O)[C@H]1O [Migalastat (hydrochloride)]
3. O=S(=O)([O-])CCSSCCS(=O)(=O)[O-].[Na+].[Na+]
4. CC[N+](C)(CC)CCOC(=O)C(O)(c1ccccc1)c1ccccc1 [Methylbenactyzium Bromide]
5. C[C@H](CCC(=O)NCCS(=O)(=O)O)[C@H]1CC[C@H]2[C@@H]3[C@H](O)C[C@@H]4C[C@H](O)CC[C@]4(C)[C@H]3CC[C@]12C
6. O=C([O-])[C@H](O)[C@@H](O)[C@H](O)[C@H](O)CO.[Na+] [Gluconate (sodium)]

Result:
["−0.04", "−0.53", "−0.18", 0.02, "−0.12", "−0.62"]

###

Tested on: NCI-H292 lung cancer cells
assay_protocol: FDA drug screening, complete media vs cholesterol-free media with simvastatin (TABLE 2)
Assay type: cell-based, human
condition_summary: NCI-H292 cells, drug in complete media
Structures can show the parent of a compound that is named as a salt.
Would you mind telling me the reported Complete Media of each entry?
Answers are plain numbers.

{"columns": ["molecule", "Complete Media"],
 "data": [
  ["CN(C)c1nc(N(C)C)nc(N(C)C)n1", 0.9636]
]}

Dear reader, for each entry below, please note its Complete Media.
1. Cc1cccc(C)c1NC(=O)C(C)N (stereo not shown) [Tocainide (hydrochloride)]
2. C[C@H](CCC(=O)NCCS(=O)(=O)O)[C@H]1CC[C@H]2[C@@H]3[C@H](O)C[C@@H]4C[C@H](O)CC[C@]4(C)[C@H]3CC[C@]12C
3. CNCCc1ccccn1 [Betahistine (dihydrochloride)]

Result:
1.006
1.003
0.8007

###

Test system: NCI-H292 lung cancer cells
assay_protocol: FDA drug screening, complete media vs cholesterol-free media without statin (TABLE 1)
Format: cell-based, human
condition_summary: NCI-H292 cells, complete media
Where a name gives a salt, the structure may show the parent alone.
parameter: Complete
Numbers only.

{"columns": ["molecule", "Complete"],
 "data": [
  ["CO[C@H]1O[C@@H]2O[C@@]3(C)CC[C@H]4[C@H](C)CC[C@@H]([C@H]1C)[C@@]24OO3", 0.7961],
  ["CC(C)c1ccc2oc3nc(N)c(C(=O)O)cc3c(=O)c2c1", 0.8551]
]}

Quick request: Complete for each listed item, please.
1. CC(=O)OCC(=O)[C@@]1(O)CC[C@H]2[C@@H]3CCC4=CC(=O)C=C[C@]4(C)[C@H]3[C@@H](O)C[C@@]21C [Prednisolone acetate]
2. N[C@@H]1[C@H]2CN(c3nc4c(cc3F)c(=O)c(C(=O)O)cn4-c3ccc(F)cc3F)C[C@@H]12
3. CNCCc1ccccn1 [Betahistine (dihydrochloride)]
4. COC(=O)C1=C(C)NC(C)=C(C(=O)OC2CCCN(Cc3ccccc3)C2)C1c1cccc([N+](=O)[O-])c1 (centres unmarked) [Benidipine (hydrochloride)]
5. CN1C(=O)OC(C)(C)C1=O

Result:
[0.6003, 0.8678, 1.139, 0.5889, 0.857]

Complete recorded for this molecule, CC(C)C[C@H](NC(=O)[C@@H](O)[C@H](N)Cc1ccccc1)C(=O)O [Bestatin (hydrochloride)] , is 0.9083
